Biological target: SARS-CoV-2 Papain-like (PLpro) protease (Severe acute respiratory syndrome coronavirus 2, UniProt P0DTD1)
Test: SARS-CoV-2 Papain-like (PLpro) protease biochemical enzyme inhibition assay (ubiquitin-fluorophore substrate, Ub-R110)
Settings: Ub-R110 substrate; run in duplicate; read-out: PLpro IC50
pIC50: −log10 of the molar value.
READOUT_KIND: pIC50

Study these solved cases before continuing.
C[C@@H](C#Cc1c(F)cc(F)cc1C#N)NC(=O)C(=O)NCc1ccccc1C(=O)NC1(c2ccc3nn(C)cc3c2)CC1 : > 7.00
O=C(C#CCNC(=O)C(=O)NCc1ccccc1C(=O)NC1(c2ccc3ccccc3c2)CC1)Nc1ccccc1 : 6.00 to 7.00
C#CCNC(=O)C(=O)NCc1ccccc1C(=O)NC1(c2cccc3ncccc23)CC1 : > 7.00

Note: attention shifts to another entry.
Ask | For the molecule CON(C)C(=O)C#CCNC(=O)C(=O)NCc1ccccc1C(=O)NC1(c2cccc3ccccc23)CC1 , give its measured pIC50 value.
Reply | > 7.00

* * *

Target: SARS-CoV-2 Papain-like (PLpro) protease (Severe acute respiratory syndrome coronavirus 2)
Experiment: SARS-CoV-2 Papain-like (PLpro) protease biochemical enzyme inhibition assay (ubiquitin-fluorophore substrate, Ub-R110)
Details: Ub-R110 substrate; run in duplicate; read-out: PLpro IC50
pIC50: −log10 of the molar value.
Would you kindly list pIC50 for each of these molecules?

Study these solved cases before continuing.
C#CCNC(=O)C(=O)NCc1ccc(C#N)cc1C(=O)NC1(c2ccc(F)c3ccccc23)CC1 [Example 53] : > 7.00
CN1C[C@H](F)C[C@H]1COc1ccc(CNC(=O)C(=O)NCC#N)c(C(=O)NC2(c3cccc4ccccc34)CC2)c1 [Example 318] : > 7.00

// input: 2 molecules below; output: pIC50 for each
1. O=C(/C=C/CNC(=O)C(=O)NCc1ccccc1C(=O)NC1(c2cccc3ccccc23)CC1)Nc1ccccc1 [Example 561]
2. O=C(NC/C=C/C(=O)n1cccn1)C(=O)NCc1ccccc1C(=O)NC1(c2cccc3ccccc23)CC1 [Example 567]

Reply |
6.00 to 7.00
6.00 to 7.00

* * *

Tested on: SARS-CoV-2 replicon
Assay: microbe, parasite or virus in culture
Format: cell-based
Details: Severe acute respiratory syndrome coronavirus 2, Huh-7
pEC50: −log10 of the molar value.
READOUT_KIND: pEC50

O=C(NCC#Cc1cnc(C2CC2)nc1)C(=O)NCc1ccccc1C(=O)NC1(c2ccc3ccccc3c2)CC1 [Example 180] : 5.00 to 6.00

// input: 2 compounds below; output: pEC50 for each
1. CC(C)(O)c1ncc(-c2cc(C3(NC(=O)c4ccccc4CNC(=O)C(=O)NCC#N)CC3)c3ccccc3c2)s1 [Example 287]
2. N#CCNC(=O)C(=O)NCc1ccccc1C(=O)NC1(c2cc(-c3ccn(C4CC4)n3)cc(F)c2F)CC1 [Example 306]

Reply |
["> 6.00", "> 6.00"]

// input: 4 compounds below; output: pEC50 for each
1. C#CCNC(=O)C(=O)NCc1ccccc1C(=O)NC1(c2cc(Cl)cc(-c3c(C)nn(C4CC4)c3C)c2)CC1 [Example 131]
2. CC(C)c1cccnc1C#CCNC(=O)C(=O)NCc1ccccc1C(=O)NC1(c2ccc3ccccc3c2)CC1 [Example 404]
3. O=C(C#CCNC(=O)C(=O)NCc1ccccc1C(=O)NC1(c2cccc3ccccc23)CC1)N[C@H]1CC[C@H](C(F)(F)F)CC1 [Example 520]
4. C#CCNC(=O)C(=O)NCc1ccccc1C(=O)NC1(c2cc(-c3ccccc3)cc(C(F)(F)F)c2)CC1 [Example 469]

Reply |
1. > 6.00
2. > 6.00
3. > 6.00
4. 5.00 to 6.00

* * *

Would you kindly list EC50 for each of these compounds?
Test system: SARS-CoV-2 replicon
Experiment: microbe, parasite or virus in culture
Format: cell-based
Details: Severe acute respiratory syndrome coronavirus 2, Huh-7

Study these solved cases before continuing.
C#CCNC(=O)C(=O)NCc1ccccc1C(=O)NC1(c2ccc(OC)c(Br)c2)CC1 : < 1000 nM
N#CCNC(=O)C(=O)NCc1ccccc1C(=O)NC1(c2ccc3c4c(cccc24)C(=O)N3)CC1 : 1000 to 10000 nM
C#CCNC(=O)C(=O)NCc1ccccc1C(=O)NC1(c2cc(F)cc(Br)c2)CC1 : < 1000 nM

// input: 2 compounds below; output: EC50 for each
1. COc1ccc(-c2cc(C3(NC(=O)c4ccccc4CNC(=O)C(=O)NCC#N)CC3)c3ccccc3c2)s1
2. COC(=O)/C=C/CNC(=O)C(=O)NNc1ccccc1C(=O)NC1(c2cccc3ccccc23)CC1

Reply |
1: < 1000 nM; 2: < 1000 nM

// input: 2 compounds below; output: EC50 for each
1. C#CCNC(=O)C(=O)NCc1ccccc1C(=O)NC1(c2ccc(F)c(-c3cccs3)c2)CC1
2. Cn1cc(-c2cc(C3(NC(=O)c4ccccc4CNC(=O)C(=O)NCC#N)CC3)ccc2F)cn1

Reply |
["< 1000 nM", "> 10000 nM"]

* * *

Would you kindly list pEC50 for each of these compounds?
System: SARS-CoV-2 replicon
Experiment: microbe, parasite or virus in culture
Format: cell-based
Details: Severe acute respiratory syndrome coronavirus 2, Huh-7
pEC50: −log10 of the molar value.

Study these solved cases before continuing.
C[C@@H](NC(=O)c1ccccc1CNC(=O)C(=O)NCC#N)c1cc(-c2ccco2)cc(C(F)(F)F)c1 : > 6.00
C#CCNC(=O)C(=O)NCc1ccccc1C(=O)NC1(c2ccc(F)c(-c3cnn(C)c3)c2)CC1 : > 6.00
CC(C)(O)c1cccc(-c2cc(C3(NC(=O)c4ccccc4CNC(=O)C(=O)NCC#N)CC3)c3ccccc3c2)n1 : > 6.00

// input: 4 compounds below; output: pEC50 for each
1. O=C(NCC#Cc1nccs1)C(=O)NCc1ccccc1C(=O)NC1(c2cc(Cl)cc(-c3ncco3)c2)CC1
2. N#CN1CC(CNC(=O)C(=O)NCc2ccccc2C(=O)NC2(c3cc(F)cc(-c4cnn(C5CC5)c4)c3)CC2)C1
3. O=C(NCC#CC(=O)N1CC(F)(F)C1)C(=O)NCc1ccccc1C(=O)NC1(c2cccc3ccccc23)CC1
4. CC(C)n1ccnc1C#CCNC(=O)C(=O)NCc1ccccc1C(=O)NC1(c2cc(F)cc(-c3cnn(C4CC4)c3)c2)CC1

Reply |
1: > 6.00; 2: 5.00 to 6.00; 3: > 6.00; 4: > 6.00

Ask | For the compound O=C(NC/C=C/C(=O)N1CC[C@H](O)C1)C(=O)NCc1ccccc1C(=O)NC1(c2cccc3ccccc23)CC1 , give its measured pEC50 value.
Reply | 5.00 to 6.00

* * *

Target: SARS-CoV-2 Papain-like (PLpro) protease (Severe acute respiratory syndrome coronavirus 2)
Test: SARS-CoV-2 Papain-like (PLpro) protease biochemical enzyme inhibition assay (ubiquitin-fluorophore substrate, Ub-R110)
Details: Ub-R110 substrate; run in duplicate; read-out: PLpro IC50
pIC50: −log10 of the molar value.
READOUT_KIND: pIC50

O=C(NCc1ccccc1C(=O)NC1(c2ccc(F)c3ccccc23)CC1)C(=O)N[C@H]1CNC1=O : < 5.00
CCCOC(=O)/C=C/CNC(=O)C(=O)NCc1ccccc1C(=O)NC1(c2cccc3ccccc23)CC1 : 6.00 to 7.00
CCOc1cccnc1C#CC1(NC(=O)C(=O)NCc2ccccc2C(=O)NC2(c3ccc4ccccc4c3)CC2)CC1 : < 5.00
Cn1cc2cc(C3(NC(=O)c4ccccc4CNC(=O)C(=O)NCC#Cc4ccc(C#N)cc4OC(F)(F)F)CC3)ccc2n1 : > 7.00
N#CCNC(=O)C(=O)NCc1ccccc1C(=O)NC1(c2ccnc3c2ccn3C2CC2)CC1 : > 7.00

// input: 5 compounds below; output: pIC50 for each
1. C#CCNC(=O)C(=O)NCc1ccccc1C(=O)NC1(c2cccc3ccccc23)CC1
2. COC(=O)/C=C/CNC(=O)C(=O)NNc1ccccc1C(=O)NC1(c2cccc3ccccc23)CC1
3. CN(C)CCn1cc(-c2cc(F)cc(C3(NC(=O)c4ccccc4CNC(=O)C(=O)NCC#Cc4nccs4)CC3)c2)cn1
4. C[C@@H](C#Cc1ncccc1Cl)NC(=O)C(=O)NCc1ccccc1C(=O)NC1(c2cc(F)cc(-c3cnn(C4CC4)c3)c2)CC1
5. CON(C)C(=O)/C=C/CNC(=O)C(=O)NCc1ccccc1C(=O)NC1(c2cccc3ccccc23)CC1

Reply |
> 7.00
> 7.00
> 7.00
> 7.00
6.00 to 7.00

// input: 4 compounds below; output: pIC50 for each
1. N#CCNC(=O)C(=O)NCc1ccccc1C(=O)NC1(c2cc(-c3cnn[nH]3)cc3ccccc23)CC1
2. C#CCNC(=O)C(=O)NCc1ccccc1C(=O)NC1(c2cc(-c3cnn(C(F)F)c3)cc(C(F)(F)F)c2)CC1
3. Cn1ccc(-c2cc(C3(NC(=O)c4ccccc4CNC(=O)C(=O)NCC#N)CC3)c3ccccc3c2)n1
4. COC(=O)/C=C/CCNC(=O)C(=O)NCc1ccccc1C(=O)NC1(c2cccc3ccccc23)CC1

Reply |
1: > 7.00; 2: 6.00 to 7.00; 3: > 7.00; 4: > 7.00

// input: 7 compounds below; output: pIC50 for each
1. COC(=O)/C=C/CNC(=O)C(=O)NCc1ccccc1C(=O)N[C@H](C)c1cc(-c2cccs2)cc(C(F)(F)F)c1
2. C#CCNC(=O)C(=O)NCc1ccccc1C(=O)NC1(c2cc(Cl)cc(C(=O)N(C)c3ccc(F)cc3)c2)CC1
3. N#CCNC(=O)C(=O)NCc1ccccc1C(=O)NC1(c2cc(-c3ccc(CO)s3)cc3ccccc23)CC1
4. C=C(CNC(=O)C(=O)NCc1ccccc1C(=O)N[C@H](C)c1cccc2ccccc12)C(=O)O
5. N#CCNC(=O)C(=O)NCc1ccccc1C(=O)NC1(c2cccc(-c3ccc(F)cc3)c2)CC1
6. N#Cc1nc(C#CCNC(=O)C(=O)NCc2ccccc2C(=O)NC2(c3ccc4ccccc4c3)CC2)ccc1Cl
7. COc1cc(C2(NC(=O)c3ccccc3CNC(=O)C(=O)NC/C=C/c3cnccn3)CC2)cc2cn(C3CC3)nc12

Reply |
> 7.00
> 7.00
> 7.00
< 5.00
6.00 to 7.00
> 7.00
6.00 to 7.00

Ask | Please report the measured pIC50 for C#CCNC(=O)C(=O)NCc1ccccc1C(=O)NC1(c2ccc3c(cnn3C)c2)CC1 tested on SARS-CoV-2 Papain-like (PLpro) protease (Severe acute respiratory syndrome coronavirus 2).
Reply | > 7.00

Origin of values: patent US20240327334A1
